test system: SW480; experiment: Inhibition of human SW480 cells after 48 hrs; format: functional, cell-based; settings: SW480, 48 h
A collection of compounds and their measured IC50
REPORTED PROPERTY: IC50

{"columns": ["MOL", "TESTED TARGET", "RESULT"],
 "data": [
  ["O=C(Nc1nonc1NC(=O)C1CCCCC1)C1CCCCC1", "SW480", "> 20 µM"],
  ["CC(C)=CC(=O)Nc1nonc1NC(=O)C=C(C)C", "SW480", "> 200 µM"],
  ["O=C(CN1CCOCC1)Nc1nonc1NC(=O)CN1CCOCC1", "SW480", "> 200 µM"],
  ["Cc1ccc(C(=O)Nc2nonc2NC(=O)c2ccc(C)cc2)cc1", "SW480", "> 40 µM"],
  ["Nc1nonc1NC(=O)c1ccc(C(F)(F)F)cc1", "SW480", "> 200 µM"]
]}

====

system: SW480; assay: Inhibition of human SW480 cells after 48 hrs; type: functional, cell-based; settings: SW480, 48 h
pIC50: −log10 of the molar value.

{"columns": ["MOL", "pIC50"],
 "data": [
  ["COc1ccc(C(=O)Nc2nonc2NC(=O)c2ccc(OC)cc2)cc1", "< 4.40"],
  ["O=C(Nc1nonc1NC(=O)c1cccc(C(F)(F)F)c1)c1cccc(C(F)(F)F)c1", "< 5.00"],
  ["O=C(Nc1nonc1NC(=O)c1ccco1)c1ccco1", "< 3.70"],
  ["O=C(Nc1ccccc1NC(=O)c1ccc(C(F)(F)F)cc1)c1ccc(C(F)(F)F)cc1", "< 5.10"],
  ["O=C(Nc1n[nH]c(O)c1NC(=O)c1ccc(C(F)(F)F)cc1)c1ccc(C(F)(F)F)cc1", "< 3.70"]
]}

Numbers sourced from ChEMBL document CHEMBL1158501.
